Here, each record is paired with measured K app data.
system: Nucleic Acid; experiment: Association constant against polynucleotide poly (dG-dC); format: nucleic-acid assay

Cn1cc(NC(=O)c2cc([N+](=O)[O-])cn2C)cc1C(=O)NCCC(=N)N | < 100 M⁻¹

Could you now look at the following compound, please?
IN: Recorded K app of `Cn1cc([N+](=O)[O-])cc1C(=O)NCCC(=N)N` , please.
OUT: < 100 M⁻¹

----------
Here, each record is paired with measured CC50 data.
test system: Raji; assay: Dose required to inhibit Human B-Lymphoblast (Raji) cell proliferation by 50%; format: functional; details: read-out: CD50 (the source's name)
Write the value in µg/mL as a bare number.

CC(NC(=O)c1cc(NC(=O)c2cc(NC(=O)CNC(=N)N)cn2C)cn1C)C(=O)NC(C)C(=O)OC(C)(C)C (centres undefined) | 54.7

Could you now look at the following compound, please?
IN: Recorded CC50 of `COC(=O)c1ccc([N+](=O)[O-])n1C` , please.
OUT: 62.4
